Attribution: ChEMBL document CHEMBL4346669

System: A549
MEASUREMENT_NOTES: Antiproliferative activity against human A549 cells assessed as reduction in cell viability measured after 72 hrs by MTT assay
Type: functional, cell-based
STUDY_CONDITIONS: Homo sapiens, A549, 72 h; read-out: IC50
Below is a list of entries, each paired with its recorded pIC50 value.
Please treat pIC50 as minus the base-10 logarithm of the molar concentration.

Take a look at these entries with their results.
CC[C@H](C)[C@H]1C(=O)N[C@H](Cc2cc(Cl)c(O)c(Cl)c2)C(=O)N[C@@H](C(C)(C)O)C(=O)O[C@H](c2ccccc2)C/C=C/C=C(\C)[C@H](OC)C[C@@H]2O[C@@]2(C)C(=O)N1C	7.04
COc1cccc2c1C(=O)c1c(O)c3c(c(O)c1C2=O)C[C@@](O)(C(=O)CO)C[C@@H]3O[C@H]1C[C@H](N)[C@H](O)[C@H](C)O1 [DOXORUBICIN]	6.34
CC[C@H](C)[C@@H]1NC(=O)[C@]2(C)O[C@H]2C[C@@H](OC)/C(C)=C/C=C/[C@@H](C)[C@@H](c2ccccc2)OC(=O)[C@H](C(C)(C)O)NC(=O)[C@@H](Cc2cc(Cl)c(O)c(Cl)c2)NC1=O	6.25

Give the reported value of pIC50 for this record: COc1cc(C[C@H]2NC(=O)[C@H](C(C)C)N(C)C(=O)/C(C)=C/C[C@@H](OC)/C(C)=C/C=C/[C@@H](C)[C@@H](c3ccccc3)OC(=O)[C@H](C(C)C)NC2=O)ccc1O 7.69
